# inhibition at 20 µM per entry
# measured-on: DNA topoisomerase I (Bos taurus, UniProt F1MN93)
# Construct: purchased TaKaRa, Kyoto, Japan
# Sequence (F1MN93 1-767): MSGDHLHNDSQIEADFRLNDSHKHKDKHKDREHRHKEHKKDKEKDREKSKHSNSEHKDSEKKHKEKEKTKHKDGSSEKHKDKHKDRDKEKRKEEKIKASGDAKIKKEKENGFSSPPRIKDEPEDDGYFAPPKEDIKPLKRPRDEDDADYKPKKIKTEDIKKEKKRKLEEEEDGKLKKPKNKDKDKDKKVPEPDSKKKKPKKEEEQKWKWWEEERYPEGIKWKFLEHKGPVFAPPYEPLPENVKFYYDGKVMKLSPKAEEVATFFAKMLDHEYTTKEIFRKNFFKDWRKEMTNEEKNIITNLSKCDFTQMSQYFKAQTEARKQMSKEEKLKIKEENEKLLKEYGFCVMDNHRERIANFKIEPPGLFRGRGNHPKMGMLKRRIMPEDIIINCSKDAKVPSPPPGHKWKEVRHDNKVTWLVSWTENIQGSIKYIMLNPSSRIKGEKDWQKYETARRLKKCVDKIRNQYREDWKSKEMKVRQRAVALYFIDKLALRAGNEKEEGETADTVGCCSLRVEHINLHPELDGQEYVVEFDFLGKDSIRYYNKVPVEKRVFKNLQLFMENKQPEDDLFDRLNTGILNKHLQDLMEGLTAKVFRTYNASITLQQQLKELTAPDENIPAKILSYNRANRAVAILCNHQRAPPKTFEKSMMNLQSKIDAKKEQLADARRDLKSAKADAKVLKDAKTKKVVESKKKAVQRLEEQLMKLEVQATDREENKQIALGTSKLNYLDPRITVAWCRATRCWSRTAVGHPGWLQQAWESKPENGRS
# assay-notes: Topoisomerase I relaxation assay (supercoiled pBR322)
# Assay type: biochemical
# assay-conditions: 20 μM compound; read-out: Topo I Inhibition (%) 20 μM
# Experimental: The effect of the tested compounds on Topo I and II activities were evaluated by Topo I/II relaxation assays. The reaction products, relaxed DNA could be distinguished from supercoiled DNA by gel electrophoresis and visualized using gel imaging system. The activity of DNA topoisomerase I (TaKaRa, Kyoto, Japan) was determined by measuring the relaxation of supercoiled DNA pBR322 [32]. Camptothecin was used as a positive control. […]

molecule | inhibition at 20 µM [%]
Cc1ccc2[nH]c3c(c2c1)C[C@@]1(C)C(CC[C@]2(C)C1CC=C1C4[C@@H](C)[C@H](C)CC[C@]4(C(=O)NCCCN(C)C)CC[C@]12C)C3(C)C (some centres unmarked) | 9
CC[C@@]1(O)C(=O)OCc2c1cc1n(c2=O)Cc2cc3ccccc3nc2-1 [CPT, camptothecin, reference compound] | 38.2
Cc1ccc2[nH]c3c(c2c1)C[C@@]1(C)C(CC[C@]2(C)C1CC=C1C4[C@@H](C)[C@H](C)CC[C@]4(C(=O)NCCN)CC[C@]12C)C3(C)C (some centres unmarked) | 5.6
Cc1ccc2[nH]c3c(c2c1)C[C@@]1(C)C(CC[C@]2(C)C1CC=C1C4[C@@H](C)[C@H](C)CC[C@]4(C(=O)NCCCCN)CC[C@]12C)C3(C)C (some centres unmarked) | 13.7
Cc1ccc2[nH]c3c(c2c1)C[C@@]1(C)C(CC[C@]2(C)C1CC=C1C4[C@@H](C)[C@H](C)CC[C@]4(C(=O)NCCCCN(C)C)CC[C@]12C)C3(C)C (some centres unmarked) | 0
Cc1ccc2[nH]c3c(c2c1)C[C@@]1(C)C(CC[C@]2(C)C1CC=C1C4[C@@H](C)[C@H](C)CC[C@]4(C(=O)NCCN4CCCCC4)CC[C@]12C)C3(C)C (some centres unmarked) | 0
CCN(CC)CCCCNC(=O)[C@]12CC[C@@H](C)[C@H](C)C1C1=CCC3[C@@]4(C)Cc5c([nH]c6ccc(C)cc56)C(C)(C)C4CC[C@@]3(C)[C@]1(C)CC2 (some centres unmarked) | 0
Cc1ccc2[nH]c3c(c2c1)C[C@@]1(C)C(CC[C@]2(C)C1CC=C1C4[C@@H](C)[C@H](C)CC[C@]4(C(=O)NCCCN)CC[C@]12C)C3(C)C (some centres unmarked) | 12.4
